# Test system: MS2 coat protein
# Assay Remarks: apparent KD of MS2 coat protein; higher = weaker reporter binding
# Condition: Eterna round: R107; input ligand: theophylline 2 mM
Output 1.0 for apparent KD of MS2 coat protein not less than 60 nM; output 0.0 otherwise.

GGAAUAAUGGCGGCCGCCACUAACUCAUAUACAUCAUGUACAUGAGGAUCACCCAUGUAGGUGUAUAGGACCGGGCCAUAAUUCC [39MS split4]
0.0
UGUAGUACCAGACAUGAGGAUCACCCAUGUCGAGGACCGGUACGGCCGCCACUCGGCAGUUUGCGUCCUCAGGUACUCCGGGUAA [Dianreti]
0.0
AUGUAGAACCGAAGGAGCGCGAUAACAUGAGGAUCACCCAUGUAGCUUUGGUGGCCUCGAUCGCAGGUAGGUCGCGGAAGUAGUA [Exclusion - Arginine B / A]
1.0
AUACAUGAGGAUCACCCAUGUGAUGGCCGGCGAGGACCGGUACGGCCGCCACUCGUGAUCCGUCCUGAGAGCAAAGCCCUCAACA [Lequcele]
1.0

Query block: Reported apparent KD of MS2 coat protein reaches at least 60 nM for CGGUAACCACAUGAGGAUCACCCAUGUGAAGGAGCGGCGAAUAAGCCAGGUAGGUCGCGCAUGAAUAAAUCAUGUUGGUGCCGAA [XArg-A 16 NuPack] ?
Result block: 1.0

Query block: Check if apparent KD of MS2 coat protein >= 60 nM (inclusive). Item: GGAUAGGACAGAAGGAGCGUGAGAUGCAUACCUUCAUUCCUCACAUGAGGAUCACCCAUGUCACAGGUAGGUCGCUGUCCUAUCG [#20 Exclusion - Arginine B]
Result block: 1.0

Query block: hey, is apparent KD of MS2 coat protein for this one >= 60 nM? CAAUAUAUAUGAAGGAGCGUCGAAAAUGGGUAAACAUGAGGAUCACCCAUGUAAAGGGAACGACAGGUAGGUCGCAUAUGUAUUG [AstromonsSSArgB#9]
Result block: 1.0

Query block: I'd appreciate it if you could say whether ACAUGAGGAUCACCCAUGUAAUGGCACGAUACCAGCUGAUCCCGUGGCCCUUGGCAGCGUCCGGUGUGGUCCGCCGGGUUGGACC [HHHMULLIN] has apparent KD of MS2 coat protein at least equal to 60 nM.
Result block: 0.0

* * *

Reported values of apparent KD of MS2 coat protein for individual entries
# System: MS2 coat protein
# Assay Remarks: apparent KD of MS2 coat protein; higher = weaker reporter binding
# Condition: Eterna round: R107; input ligand: tryptophan 2.4 mM

GAUGAUAUUGCAGAUACCAGACACAUGAGGAUCACCCAUGUCGUUGGGUAGCUGGGUCGUGUCCCUUGGCAGCUGCGAUAUCAUC [#05 Exclusion-TheophyllineB]
24.5 nM
CUUGAUAACUGAAGGAGCGAGAAACCCUACAUGAGGAUCACCCAUGUAUACACGGGAACUUCUCAGGUAGGUCGCAGUAUGUCAA [Teveor]
71.5 nM
ACAUGAGCAUCAGCCUUGUAGGAACUAGAUACCAGCCCAACAUGAGGCCCUUGGCAGCUGACAACAUGAGGAUCACCCAUGUCAC [Exclusion - Theophylline A #1]
38.4 nM
UUUUUCGCGGGCGAUACCAGCUUGAUCGUACUGGCCUGGUACAUGAGGAUCACCCAUGUAAGCCCUUGGCAGCGCGCGGGAGAAG [Exclusion - Theophylline B Attempt #1 (HarryS)]
15.2 nM
ACAUGAGGAUCACCCAUGUUCCUCAUUGAUACCAGUGAAUUUAGACGCCCUUGGCAGCGAGUUUUUUUAUAAGAUGUUUUUUUUU [6.H]
1040 nM
AAAGAUCGGAAACGAUCGGCGGCUUGGGCGCGAGGACCGGUACGGCCGCCACUCGGGCAACAUGAGGAUCACCCAUGUUCCUCAU [ETA NP+V+V2 #17]
189 nM
UGUAUGGACUGAAGGAGCGCCUCAAAAUAACUUGAGGAUCACCCAAGUAAGGCGAAAGCCGGGCAGGUAGGUCGCAGUCCAUACU [ArgBX 3]
12.4 nM
AUGUCGUUGAAUAUAGCGGCUUGGUGUGAUACCAGAAUGAUCUAAUUCCCUUGGCAGCAUUACAUGAGGAUCACCCAUGUUUAGG [SSTheo A #19]
28.8 nM

Query block: I would be grateful if you could share the reported apparent KD of MS2 coat protein for CCUCAUGAACAUGAGGAUCACCCAUGUACACGAGGACCGGUACGGCCGCCACUCGAAUAACCUUAAUAUAAAUAAUAAUAAAAGG [5' end split MS2] .
Result block: 45.5 nM

Query block: Item UUUUUCGCGUUUGAUACCAGCAGAGUUGUUCUGGUCUGGUACAUGAGGAUCACCCAUGUCUGCCCUUGGCAGCAAACGGGAGAAG [XTheo #30] has what recorded apparent KD of MS2 coat protein?
Result block: 14.8 nM

Query block: Can you look up the measured apparent KD of MS2 coat protein of GCACGACAUGAGGAUCACCCAUGUGCAGAUACCAGUAGGAUAUCCUACCCUUGGCAGCUGAGUAGAUCUGGAGGACUAUAGGUAA [Same State Theophylline A GF9] for me?
Result block: 18.3 nM

Query block: Need apparent KD of MS2 coat protein of AGUAGCUGCCGAAGGAGCGCCGUGUUCCUACAUGAGGAUCACCCAUGUAGCGUUGGGUUACGGCAGGUAGGUCGCGGCGGAUAGG [Same State - Arginine B / B] , thanks.
Result block: 119 nM

* * *

# System: MS2 coat protein
# Assay Remarks: apparent KD of MS2 coat protein; designed switch direction (-1 OFF switch, 1 ON switch): -1; higher = weaker reporter binding
# Condition: input ligand: none
Please note: YES applies when apparent KD of MS2 coat protein is 40 nM or greater, and NO applies otherwise.

Solved cases below.
GGGCCACAUGAGGAUCACCCAUGUUAGGAUAUUUGUUCGGUGCUAUGAAUUCAAGGCUAGAGAAGGAACAGGGA [Eternabot (L1) Solution 46] (Eterna round: R97, puzzle: Exclusion 1)
NO
GGAACGACAGGAUAUACAUGAGGAUCACCCAUGUAAAGAAGAGUAAAAUGUGAAAGCGGUAGAAGGGUCAAGAA [AK-MS2ROC-r4-exclusion3-6] (Eterna round: R97, puzzle: Exclusion 3)
YES
GCAAGCUUUAUCACUAUGAACAUGAGGAUCACCCAUGUAUAAGGUAUUACUUUUGGGCUCUUUAGUGCUCGUCUUAU [JR_STOV1_Sub033] (Eterna round: R97, puzzle: Sensor, turn-off variant 1)
NO
GCACGGAAUGUAGGAUAUUAGUGCGAUUAGCACUGAGAAGGACAUGAGGAUCACCCAUGUAAUAACAUAAUAAACCUUCCGUGC [Eli exng1 - 046] (Eterna round: R96, puzzle: Exclusion NG 1)
NO
ACAUGAGGAUCACCCAUGUUCGGCUGGUCCGUCUCGGCUGUCGAGGAUAUAGCUCGGUGUCCGCGCUAGAAGGCGGGAGCUGGC [Aenatbe mod 66] (Eterna round: R96, puzzle: Exclusion NG 3)
YES
UAAACAAGCUAAAGAUUCUACAUGAGGAUCACCCAUGUGCUCGUCUUAUAAGGUACUGUGACGAAAGUCACGGUACC [JL TOV1 3.07] (Eterna round: R97, puzzle: Sensor, turn-off variant 1)
NO

Query block: Threshold query (apparent KD of MS2 coat protein >= 40 nM) on GGGCCACAUGAGGAUCACCCAUGUGAGGAUAUCAUGCUUCGUAGUAAACUACGAAGUGUGAGAAGGCACAAUGG [Omei Ex1 C9] (Eterna round: R97, puzzle: Exclusion 1)
Result block: YES

Query block: Does the reported apparent KD of MS2 coat protein for UUAUUGUGAGGAUAUAUAUGCAGUAAUCCUUUAAAUUUAUAACUUGAGGAUCACCCAAGUAGAAGGCGCGAUAU [JR_Ex2_Sub055] (Eterna round: R97, puzzle: Exclusion 2) fall at or above the 40 nM mark?
Result block: NO

Query block: Quick check: does CCCGGGUCAGGAUAUCACUUAAGCGCAGUGAGCGUCUGAGAUGAGAAGGGACAUGAGGAUCACCCAUGUGUGGC [Eternabot (L2) Solution 66] (Eterna round: R97, puzzle: Exclusion 4) have apparent KD of MS2 coat protein greater than or equal to 40 nM?
Result block: YES

* * *

# System: MS2 coat protein
# Assay Remarks: apparent KD of MS2 coat protein; designed switch direction (-1 OFF switch, 1 ON switch): -1; higher = weaker reporter binding
# Condition: Eterna round: R95; input ligand: microRNA oligo, concentration not stated
This listing pairs sequences with measured apparent KD of MS2 coat protein.
Just the number please, in nM, no unit attached.

UAUAAAACAUAGGAUAUCGAAUAUAUCAUUUAACGAGAAGGAUGAACAUGAGGAUCACCCAUGUGGUAUCAUGG [Mat - Exclusion 6 - JL Mod - D8] (puzzle: Exclusion 6)
262

Query block: Query: apparent KD of MS2 coat protein; subject: GGUUGGCGAGGAUAUACAUGAGGAUCACCCAUGUGAGAGAAAAAAGUGAGAACGAAAAGUAGAAGGCGCUGACG [salish99_ex3_r3_057] (puzzle: Exclusion 3)
Result block: 122

Query block: What does the data say about its apparent KD of MS2 coat protein? Entry: GAAAAGGUAGGAUAUACGAAAAAAAAGGGUAGAAAAAAAACACAUGAGGAUCACCCAUGUAGAAGGACCAGAAG [salish99_ex2_r3_038] (puzzle: Exclusion 2)
Result block: 27.9

Query block: # apparent KD of MS2 coat protein lookup, item UCGGCGCGAGGAUAUGCGGUUCCUGCUUCGGGCCGGAGCGUACAUGAGGAUCACCCAUGUAGAAGGCGCGCCGC [Apr-15 SS2-38] (puzzle: Exclusion 2)
Result block: 12.1

Query block: Bench note: what apparent KD of MS2 coat protein did UGGUAACAUGAGGAUCACCCAUGUCAGGAUAUCAGUAAGAAUAGAUUAGAUUAGAAUAUGAGAAGGGACUAUAG [Excluse me! 3 - Jieux - Exclusion 1] (puzzle: Exclusion 1) show?
Result block: 38.9

Query block: Data request, read-out apparent KD of MS2 coat protein, for CGUGUCUUUUACGUGAGUGGUGGGUGCAACAGGUGGGUUACAUGAGGAUCACCCAUGUCCUCACUUGCUCGUCUUUU [Grok-var2-08] (puzzle: Sensor v3, turn-off variant 2)
Result block: 53.5

Query block: What does the data say about its apparent KD of MS2 coat protein? Entry: AGUAGUUGUUUCCGUUCUUACAUGAGGAUCACCCAUGUUUCUUGACGUGCACGCGAUGCUCGUCAGACUACCAGAUG [salish99_TOv1_r3_057] (puzzle: Sensor v3, turn-off variant 1)
Result block: 87.8

Query block: Consider the sequence shown here: CUUCGUAUAGAGGAUAUAGGAUACGAAAGUGUCCUAGAAGGCUGUACAUGAGGAUCACCCAUGUACUUCAGAUC [Exclusion 6 - B - 14:e] (puzzle: Exclusion 6) What is its recorded apparent KD of MS2 coat protein?
Result block: 11.7

Query block: Given the entry CUUAGACAUGAGGAUCACCCAUGUGAGGAUAUGAUGCGAAUAAGUAAGUAAUAAAGCAUCAGAAGGCACAUAUG [Mat - Mod of Hyphema D28] (puzzle: Exclusion 1) , report its measured apparent KD of MS2 coat protein.
Result block: 186

Query block: Report apparent KD of MS2 coat protein for GGUCAAGAACAGAUCCGCGCUGCCAUUGACCGCUCAUUUACAUGAGGAUCACCCAUGUUUUUUGCUCAUCUUGUUAC [Usdila] (puzzle: Sensor v3, turn-off variant 2) please.
Result block: 62.2

Query block: Name the recorded apparent KD of MS2 coat protein for CUCUUGUCAGGAUAUCAACGCCGCCCACAUGGGCAGCGAAAUGAGAAGGGACAUGAGGAUCACCCAUGUUAAAA [Retema] (puzzle: Exclusion 4) .
Result block: 161
